Provenance of the data: patent US20240376185A1

Each record here notes measured EC resulting in A450 0.4.
# Target Desc: tetanus neurotoxin (TeNT), authentic tetanus holotoxin (Clostridium tetani, UniProt P04958 2-1315)
# Sequence (P04958 2-457 limits assumed, chain 1 of 2): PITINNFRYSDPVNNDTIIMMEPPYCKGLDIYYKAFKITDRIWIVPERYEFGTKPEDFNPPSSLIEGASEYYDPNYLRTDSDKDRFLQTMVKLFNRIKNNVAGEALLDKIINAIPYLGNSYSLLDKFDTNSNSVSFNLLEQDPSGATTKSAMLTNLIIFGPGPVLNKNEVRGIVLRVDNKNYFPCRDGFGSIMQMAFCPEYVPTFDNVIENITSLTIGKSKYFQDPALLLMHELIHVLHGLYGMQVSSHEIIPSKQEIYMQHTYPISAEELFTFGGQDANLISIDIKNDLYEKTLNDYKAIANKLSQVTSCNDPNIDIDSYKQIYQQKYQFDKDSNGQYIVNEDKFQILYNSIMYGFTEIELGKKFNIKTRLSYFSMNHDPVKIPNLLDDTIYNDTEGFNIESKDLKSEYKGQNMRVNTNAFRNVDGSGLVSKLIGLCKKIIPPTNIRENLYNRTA
# Sequence (P04958 458-1315 limits assumed, chain 2 of 2): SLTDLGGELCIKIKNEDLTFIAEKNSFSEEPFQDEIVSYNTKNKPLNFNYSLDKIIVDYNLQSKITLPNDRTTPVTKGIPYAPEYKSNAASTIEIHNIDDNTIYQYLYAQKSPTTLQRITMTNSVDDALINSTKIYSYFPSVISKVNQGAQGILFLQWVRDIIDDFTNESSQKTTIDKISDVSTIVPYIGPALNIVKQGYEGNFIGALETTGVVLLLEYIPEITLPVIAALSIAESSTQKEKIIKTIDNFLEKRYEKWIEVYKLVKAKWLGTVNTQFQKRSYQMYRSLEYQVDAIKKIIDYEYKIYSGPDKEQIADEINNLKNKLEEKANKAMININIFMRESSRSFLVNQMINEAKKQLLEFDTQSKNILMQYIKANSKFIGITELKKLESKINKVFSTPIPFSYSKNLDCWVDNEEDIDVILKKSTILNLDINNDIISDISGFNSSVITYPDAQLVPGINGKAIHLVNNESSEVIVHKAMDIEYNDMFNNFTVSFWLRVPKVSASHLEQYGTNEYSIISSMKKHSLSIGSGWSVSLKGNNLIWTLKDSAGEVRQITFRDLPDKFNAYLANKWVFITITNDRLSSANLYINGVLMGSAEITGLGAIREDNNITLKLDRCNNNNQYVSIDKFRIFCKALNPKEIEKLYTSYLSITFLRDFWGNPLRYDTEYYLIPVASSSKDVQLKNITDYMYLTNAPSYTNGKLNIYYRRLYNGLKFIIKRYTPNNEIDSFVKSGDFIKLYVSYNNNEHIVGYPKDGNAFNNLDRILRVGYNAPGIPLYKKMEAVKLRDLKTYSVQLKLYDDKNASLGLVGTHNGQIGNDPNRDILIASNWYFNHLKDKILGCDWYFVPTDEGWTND
# Test Name: ELISA, directly coated TeNT, biotinylated binder
Number in ng/mL, nothing else.

SVT13L (VHH) VHH: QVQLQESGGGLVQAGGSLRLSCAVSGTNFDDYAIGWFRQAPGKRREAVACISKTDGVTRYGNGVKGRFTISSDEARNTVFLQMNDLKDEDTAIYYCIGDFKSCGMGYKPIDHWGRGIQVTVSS    0.57

Here's the next entry for you.
Data request, read-out EC resulting in A450 0.4, for SVT29L (VHH) VHH: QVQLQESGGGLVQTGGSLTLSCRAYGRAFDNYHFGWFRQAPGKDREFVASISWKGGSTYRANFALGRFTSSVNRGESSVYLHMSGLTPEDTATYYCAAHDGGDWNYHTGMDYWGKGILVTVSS
6.9
